- System: HT29 colon
- test.protocol: NCI-60 one-dose screen, 48 h (100 = growth as untreated, 0 = no growth, -100 = all killed)
- condition.details: 10 µM unless noted
About 83,000 compounds went through this panel and 20% of them were active in at least one assay; those are over-represented in the sample as a whole. Activity calls are given as the source filed them. The calls were made as follows: active = growth percent below 10; inactive = the rest.
recorded.metric: growth

• CC1(C)CC[C@]2(CO)CC[C@]3(C)C(=CC[C@@H]4[C@@]5(C)CCNCC(C)(C)[C@@H]5CC[C@]43C)[C@@H]2C1 = 12% (inactive)
• Cc1c(C)c2c(c(C)c1OC(=O)CCC(=O)[O-])CCC(C)(CCCCCCCCCCC[P+](c1ccccc1)(c1ccccc1)c1ccccc1)O2 (stereo not drawn) = 6.17% (active)
• NCCCCCNc1noc(Cc2c[nH]c3cc(Br)ccc23)n1 = 3.86% (active)
• COc1ccc2c(c1)c(-c1nc(-c3cn(C)c4ccncc34)cs1)cn2C = -58.1% (active)
• CCN1C(=O)N(CC)C2C1NC(=S)N2/N=C/C=C/c1cccs1 (stereo not drawn) = 5.58% (active)
• CCOC(=O)c1c(C)nc2c(c1N)C(=O)C(=O)N2CCc1ccc(OC)c(OC)c1 = 39.6% (inactive)
• CCN1C(=O)N(CC)C2C1NN=c1s/c(=C\c3ccc(F)cc3)c(=O)n12 (stereo not drawn) = 3.48% (active)
• O=C1C(Nc2ccc(Br)cc2)=C(I)C(=O)c2ncccc21 = 54.7% (inactive)
• COc1ccc(Nc2nc(Nc3cc(C)[nH]n3)c3cc(OC)c(OC)cc3n2)cc1 = -61.2% [20 µM] (active)
• O=C(OCc1ccc2c(Br)cc(Br)c(O)c2n1)N1CCN(C(=O)c2cc3ccccc3[nH]2)CC1 = 59.6% (inactive)
• O=C(Nc1ncc(Cc2cc(C(F)(F)F)ccc2Cl)s1)C(=S)N1CCOCC1 = 95.1% (inactive)
• Nc1ncnc2c1N=C(c1ccc([N+](=O)[O-])cc1)CC(c1ccc3c(c1)OCO3)N2 (stereo not drawn) = 97.3% (inactive)
• COc1ccc(C(=O)/C=C/c2ccc(Cl)cc2)cc1S(N)(=O)=O = 43.6% (inactive)
• C=CCOC(=O)C1=C(C)N(CC)C(=O)N(CC)C1c1c(Cl)n(C)c2ccccc12 (stereo not drawn) = 82.3% (inactive)
• O=C(Nc1cccc(Cn2c(=O)[nH]c3ccc(Oc4ncccn4)cc3c2=O)c1)c1cccc(Cl)c1 = 54.8% (inactive)
• C#Cc1ccc(NC(=O)Cc2ccc(/C=C/C(=O)c3nccn3C)cc2)cc1 = 6.76% (active)
• N#Cc1c(-c2ccc(F)cc2)cc(-c2cccc(Cl)c2)[nH]c1=O = 110% (inactive)
• [2H]C([2H])([2H])Oc1ccc(/C=C/C(=O)/C=C(/C=C/c2ccc(OC([2H])([2H])[2H])c(OC([2H])([2H])[2H])c2OC([2H])([2H])[2H])OB(F)F)c(OC([2H])([2H])[2H])c1OC([2H])([2H])[2H] = 38.5% (inactive)

====

Listed here: items and their measured growth.
- Test system: UACC-257 melanoma
- test.protocol: NCI-60 one-dose screen, 48 h (100 = growth as untreated, 0 = no growth, -100 = all killed)
- condition.details: 10 µM unless noted
This is part of a sample that, as a whole, favours compounds with a hit. Of some 83,000 tested, about 20% had one in any assay. The source made the active and inactive calls. The calls were made as follows: active = growth percent below 10; inactive = the rest.
recorded.metric: growth

• COC(=O)c1sc(-c2ccc(C)cc2)cc1O = 115% (inactive)
• [2H]C([2H])([2H])Oc1ccc(/C=C/C(=O)/C=C(/C=C/c2ccc(OC([2H])([2H])[2H])c(OC([2H])([2H])[2H])c2OC([2H])([2H])[2H])OB(F)F)c(OC([2H])([2H])[2H])c1OC([2H])([2H])[2H] = 53.5% (inactive)
• C=C(C)[C@@H]1CC[C@]2(C(=O)NC(C)=O)CC[C@]3(C)[C@H](CC[C@@H]4[C@@]5(C)CCCNC(C)(C)[C@@H]5CC[C@]43C)[C@@H]12 = -64.5% (active)
• COc1ccc(C(=O)C2OC3=C(C(=O)CC(C)(C)C3)C2c2cccc(Oc3ccccc3)c2)cc1 (configuration not stated) = 91% (inactive)
• COc1cc2cc(Oc3ccc(NC(=O)Nc4ccc(Cl)c(Cl)c4)cc3)c(C)nc2cc1OCCN1CCCCC1 = 93.6% (inactive)
• Cn1cc(-c2csc(-c3cn(CCO)c4ccc(F)cc34)n2)c2cccnc21 = 77.4% (inactive)
• CN1CCN(Cc2ccc(NC(=O)c3cncc(C#Cc4c(N)ncc5ccccc45)c3)cc2C(F)(F)F)CC1 = -72.2% (active)

====

- Tested on: SN12C renal
- test.protocol: NCI-60 one-dose screen, 48 h
- condition.details: 10 µM unless noted
About 83,000 compounds went through this panel and 20% of them were active in at least one assay; those are over-represented in the sample as a whole. The source made the active and inactive calls. Rule for the calls: active = growth percent below 10; inactive = the rest.
Outcomes: active, inactive

• CC(Cc1cccc2ccccc12)C(N)=O (centres undefined) = inactive
• C/C(=C(\c1ccc(OCCCN(C)C)cc1)c1ccc(OC(=O)Cc2ccccc2)cc1)c1ccc(Cl)cc1 = inactive
• CO[C@]12C=C/C(=C(/C(=O)OCc3cccnc3)C(=O)CCCCCCCC[C@]3(OC)C=C/C(=C(/C(=O)OCc4cccnc4)C(=O)CCCCCCCC1)O3)O2 = active
• Cc1ccc(C2=Nc3c(N)nc(N)nc3NC(c3cccc(Nc4ccnc5cc(C(F)(F)F)ccc45)c3)C2)cc1 (centres undefined) = inactive

====

- Test system: HCT-15 colon
- test.protocol: NCI-60 one-dose screen, 48 h (100 = growth as untreated, 0 = no growth, -100 = all killed)
- condition.details: 10 µM unless noted
Compounds without any hit were thinned out: in the full panel of roughly 83,000, 20% have a hit.
recorded.metric: growth (%)

* O=C1/C(=C/c2cccc(Br)c2)COc2ccc(O)c(O)c21 | -7.69
* CCOC(=O)c1ccc2c(c1)[n+](=O)c(C(C)=O)c(C(F)(F)F)n2[O-] | -36
* COCCn1cc(-c2nc(-c3cc4cccnc4n3C)cs2)c2cc(OC)ccc21 | 32.1
* CN1CCN(c2ccc(Nc3ncc4[nH]c(=O)n(Cc5ccccc5N)c4n3)cc2)CC1 | 106
* O=C1NCCS(=O)(=O)/C1=C\C=C\c1cccc(C(F)(F)F)c1 | 10.2
* CCN1CCN(C(=O)[C@]23CC[C@@H](C)[C@H](C)[C@@H]2C2=CC[C@@H]4[C@@]5(C)C/C(=C/c6ccncc6)C(=O)C(C)(C)[C@@H]5CC[C@@]4(C)[C@]2(C)CC3)CC1 | -53.2
* Cc1ccc(Nc2cc(N)nc(N)n2)cc1 | 104
* COc1ccc(/C=N/NC(=O)Cn2nnc3ccccc32)cc1 | 104
* O=C1NCCN1/N=C/c1c(Cl)n(Cc2ccc(Cl)cc2)c2ccccc12 | 93.3
* CC(=O)Cc1nsc(NC(=O)c2cc(-c3cc(Cl)ccc3Cl)oc2C)n1 | 103
* COc1ccc(C2=C/C(=C\c3ccccc3O)C(=O)N2Cc2ccccc2)cc1 | 67.6
* Nc1ccc(Cl)c2c(=O)c3ccccc3[nH]c12 | 83.1
* C=CN(C(=O)N1CCN(c2cc3c(cc2F)c(=O)c(C(=O)O)cn3C2CC2)CC1)c1nc(-c2ccc(C)cc2)cs1 | 9.38
* NCCCCCNc1noc(Cc2c[nH]c3cc(Br)ccc23)n1 | 35.7
* CNC(=O)c1cc(Oc2ccc3nc(NC(=O)NC(C)C)sc3c2)ccn1 | 55.9
* CCN(CC)CCN1C(=O)c2c(c(C)c3c(oc4cc(OC)ccc43)c2C)C1=O | 101
* CCOC(=O)/C(=C/c1ccc([N+](=O)[O-])cc1)C(=O)c1ccccc1 | -15.2
* COC(=O)[C@@H](Cc1c[nH]c2ccccc12)NC[C@@H](O)CN1C(=O)/C(=C\c2cc(OC)c(OC)c(OC)c2)c2ccccc21 | 53.9
* O=C(Cn1cc(CSc2nc3ccccc3o2)nn1)Nc1ccc([N+](=O)[O-])cc1 | 106
* CCOC(=O)CC1C(CNC(=O)NC)OC(n2cnc3c(NC(=O)Nc4ccccc4)ncnc32)C1O[Si](C)(C)C(C)(C)C (stereo not given) | 55.7

====

- Test system: A549/ATCC NSCLC
- test.protocol: NCI-60 one-dose screen, 48 h (100 = growth as untreated, 0 = no growth, -100 = all killed)
- condition.details: 10 µM unless noted
This is part of a sample that, as a whole, favours compounds with a hit. Of some 83,000 tested, about 20% had one in any assay.
recorded.metric: growth (%)

- C#CCOc1cccc(-c2ncnc3cc(NC(=O)CCl)ccc23)c1: 16.7
- FC(F)(F)c1cccc(-c2nnn(Cc3cc(-c4cccc(Cl)c4)no3)n2)c1: 100
- O=C1NC(=O)C(=Cc2cc(-c3ccc(Cl)cc3)n(-c3ccccc3)n2)C(=O)N1: 97.4
- COc1ccc(Cn2cc3c(c2)-c2oncc2CC3)cc1: 52.1
- CN1CCN(Cc2ccc(NC(=O)c3cncc(C#Cc4c(N)ncc5ccccc45)c3)cc2C(F)(F)F)CC1: -87.7
- COc1cc(-c2ccc(-c3ccc(C(=N)N)s3)s2)cc(OC)c1OC: 32.8
- CS(=O)(=O)Nc1cc(-c2ccc3ncnc(Nc4cccc(Cl)c4)c3c2)cnc1Cl: -13.4
- Cc1nc2ccccc2c(/C=C/c2ccc(Br)cc2)c1C(=O)/C=C/c1ccccc1: 14.8
- Nc1nc(N)c2c(n1)NC(c1cccc(Nc3ccnc4cc(C(F)(F)F)ccc34)c1)CC(c1ccc(Cl)cc1)=N2 (stereo not given): 40.8
- COc1ccc(-c2cc(-c3ccc(Cl)cc3)c(C#N)c(=O)n2CCCCC(=O)NO)cc1: 82.7
- CC(=O)c1ccc(Nc2nccc(-c3ccc(Cl)cc3)n2)cc1: 87
- CS(=O)(=O)c1cccc(Nc2ncc3cc(-c4ccccc4Cl)ccc3n2)c1: 13.8
- CCOC(=O)c1c(NC(=S)Nc2ccc([N+](=O)[O-])cc2)sc2c1CCCCC2: 84.4
- COc1cc(/C=C/c2cc(/C=C/c3ccc(O)c(OC)c3)n(C(=O)Nc3ccc(C)cc3C)n2)ccc1O: -3.98
- C=CCNc1ccc2c3c(cccc13)C(=O)N(CC=C)C2=O: 103
- O=C(NCCN1CCOCC1)c1cncnc1Nc1ccc2c(ccn2Cc2ccccn2)c1: 101
- CCN1CCN(CCOc2ccc(CNc3ccc4nc(CCC5CCCCC5)[nH]c4c3)cc2)CC1: 48.3
- CCN1C(=O)N(CC)C2C1NC(=S)N2/N=C/C=C/c1cccs1 (stereo not given): 24.9
- COc1ccc(-c2ccc(-c3ccc(C(=N)N)nc3)s2)cc1: -56.7
- CCN(CC)c1ccc(/C=N/NC(=O)c2ccccc2Nc2ccnc(C(F)(F)F)c2)c(O)c1: 35.8

Reference for the values: PubChem BioAssay (NCI)
